# Tested on: SEM cells
# test_description: cell viability relative to DMSO control; higher = less cytotoxic
# settings: RPMI 5 mM glucose + 10% dialyzed FBS; 48 h; 0.00702 µM
metric: cell viability (%)
Numbers only, in %.

Below, 2 molecules whose answers are already recorded.
| molecule | result_value |
| --- | --- |
| CC(C)(C)C(=O)Oc1ccc2c(c1)nc(NC(=O)c1cccc([N+](=O)[O-])c1)n2CCCO | 122 |
| CN(c1ncccc1CNc1nc(Nc2ccc3c(c2)CC(=O)N3)ncc1C(F)(F)F)[S+](C)(=O)[O-] | 122 |

Count: 6. Required value per item: cell viability.
1. CC(C)n1nc(-c2cc3cc(O)ccc3[nH]2)c2c(N)ncnc21
2. CC/1=C/C(=O)N(O)/C(=C1)C2CCCCC2
3. CNC1CCC(N(Cc2cccc(-c3ccncc3)c2)C(=O)c2sc3ccccc3c2Cl)CC1 (centres undefined)
4. Cc1cn2c(-c3cn[nH]c3)cnc2c(Nc2ccc(C(=O)N3CCNCC3)cc2F)n1
5. COC1=CC=CC=C1C2=CC=CC(=C2)C/3=C(O)/C4=CC(=C(Cl)C=C4NC3=O)C#N
6. CC(=O)Oc1ccccc1C(=O)O

1. 92.4
2. 126
3. 95.5
4. 105
5. 92.9
6. 109

Value of cell viability reported for the molecule CCc1cc(Nc2nccc(-c3c(-c4ccc(OC)c(C(=O)Nc5c(F)cccc5F)c4)nc4ccccn34)n2)c(OC)cc1N1CCC(N2CCN([S+](C)(=O)[O-])CC2)CC1 is 80.7
